Reference source for all entries: paper PMC4096996

study system: AvGluR1 LBD (Adineta vaga, UniProt E9P5T5, INS567GT)
test summary: Competitive displacement of [3H] L-glutamate with NaCl substituted by HEPES
Assay type: binding
Task for the reader: assign each of the following compounds its reported Kd.
Numbers only, in µM.

N[C@@H](CCC(=O)O)C(=O)O [glutamate, L-glutamate] : 0.3

# ---- query compound ----
Data request, read-out Kd, for CSCC[C@H](N)C(=O)O [methionine]
270

====

study system: AvGluR1 LBD (Adineta vaga, UniProt E9P5T5, INS567GT)
test summary: biochemical
Assay type: binding
test parameters: Kd, displacement of 100 nM [3H] L-Glu, NaCl buffer
Task for the reader: assign each of the following compounds its reported pKd.
Give bare numbers, as −log10 of the molar value.

// known answers, use as guide
CSCC[C@H](N)C(=O)O [methionine] : 4.82
N[C@@H](CS)C(=O)O [cysteine] : 4.34
N[C@@H](Cn1oc(=O)[nH]c1=O)C(=O)O [quisqualate] : 4.41

Please supply pKd for each of the following items, keeping them in order.
1. NC(=O)CC[C@H](N)C(=O)O [glutamine]
2. NC(=O)C[C@H](N)C(=O)O [asparagine]

[4.43, 4.09]
